Biological target: BRAF D594G (Homo sapiens, UniProt P15056, D594G)
Construct: Horizon Discovery (HCT-116 BRAF−/− cells); host or cells: HCT-116 BRAF−/− cells, clone 63, lentiviral transduction
Sequence (P15056 whole entry D594G): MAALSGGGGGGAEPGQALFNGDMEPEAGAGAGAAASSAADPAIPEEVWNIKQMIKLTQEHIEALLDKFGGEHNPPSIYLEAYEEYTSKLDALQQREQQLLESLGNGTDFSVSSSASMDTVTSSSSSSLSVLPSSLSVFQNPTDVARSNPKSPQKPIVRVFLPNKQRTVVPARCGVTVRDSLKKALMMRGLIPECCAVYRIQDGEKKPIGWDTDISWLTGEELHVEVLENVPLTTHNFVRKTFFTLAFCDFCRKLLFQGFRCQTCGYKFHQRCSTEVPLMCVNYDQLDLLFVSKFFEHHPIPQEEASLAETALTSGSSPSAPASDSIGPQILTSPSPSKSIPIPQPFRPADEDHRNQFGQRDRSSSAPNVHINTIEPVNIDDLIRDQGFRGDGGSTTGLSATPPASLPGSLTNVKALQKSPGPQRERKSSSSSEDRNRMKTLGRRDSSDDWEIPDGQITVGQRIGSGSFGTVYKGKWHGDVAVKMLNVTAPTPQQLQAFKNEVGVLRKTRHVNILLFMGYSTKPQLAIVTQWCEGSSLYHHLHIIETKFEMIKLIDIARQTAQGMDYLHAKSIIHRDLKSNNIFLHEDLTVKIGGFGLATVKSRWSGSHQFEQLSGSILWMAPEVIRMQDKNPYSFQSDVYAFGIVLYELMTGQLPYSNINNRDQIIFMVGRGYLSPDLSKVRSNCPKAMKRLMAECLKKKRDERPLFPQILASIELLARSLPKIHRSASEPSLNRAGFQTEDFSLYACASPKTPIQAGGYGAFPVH
Test: BRAF HiBiT degradation assay, C-terminal HiBiT-tagged BRAF D594G overexpressed in HCT-116 BRAF−/− cells (clone 63), Nano-Glo HiBiT Lytic assay
Format: cell-based
Conditions: HCT-116; BRAF D594G; percentage protein degraded at maximal compound effect relative to DMSO
Task for the reader: assign each of the following compounds its reported Dmax.

Specify Dmax for CCN(C)S(=O)(=O)Nc1cccc(-c2nc(C(C)(C)C)sc2-c2ccnc(Nc3ccc(N4CCN(CC5CCN(c6ccc(C7CCC(=O)NC7=O)cn6)CC5)CC4)cn3)n2)c1F (racemic) [Compound 126] and stop.
30 to 70%

Specify Dmax for CCCS(=O)(=O)Nc1cccc(-c2nc(C3CCN(CC4CCN(C[C@H]5CC[C@H](Oc6ccc(C7CCC(=O)NC7=O)cc6)CC5)CC4)CC3)sc2-c2ccnc(N)n2)c1F (mixture of isomers) [Compound 225] and stop.
30 to 70%

Specify Dmax for CCCS(=O)(=O)Nc1cccc(-c2cn(-c3ccc(C4CCN(CC5CCN(c6ccc(C7CCC(=O)NC7=O)cn6)CC5)CC4)cc3)nc2-c2ccncc2)c1F (racemic) [Compound 24] and stop.
30 to 70%

Where do these numbers come from? They come from patent US20260317324A1.
